Kindly state abundance fitness for each of the entries shown.
B1: DnaJ homolog subfamily C member 5, residues 16 to 77; numbered along this chain, Q9H3Z4 (parent)
chain: LYHVLGLDKNATSDDIKKSYRKLALKYHPDKNPDNPEAADKFKEINNAHAILTDATKRNIYD

Variants of: B1
Experiment: abundance fitness (aPCA) (normalised: wild type 0, dead -1); higher = more abundant; growth selection in yeast, the domain comes from the species named
Conditions: Homo sapiens
Give the value as a plain number.

Q: Query (variant): A24G ; field requested: abundance fitness
Ans: -0.377

Q: I would be grateful if you could share the reported abundance fitness for P29M .
Ans: -0.386

Q: So what's the measured abundance fitness for this one? K22R
Ans: 0.041

Q: I am curious: what abundance fitness value has been reported for Y2E ?
Ans: -0.098

Q: Recorded abundance fitness of L5P , please.
Ans: -0.221

Q: Recorded abundance fitness for G6K , please?
Ans: -0.751

Q: Returns the measured abundance fitness for the input variant. Input: P33F
Ans: -0.351

Q: Given the entry S13G , report its measured abundance fitness.
Ans: -0.376

Q: For the variant shown here, H28K , give the reported abundance fitness.
Ans: 0.134

Q: // returns reported abundance fitness for input S19K
Ans: -0.391

Q: Returns the measured abundance fitness for the input variant. Input: L1I
Ans: -0.084

Q: GET /values?readout=abundance fitness&item= N35R
Ans: -0.282

Q: Can you look up the measured abundance fitness of L23P for me?
Ans: -0.438

Q: What value of abundance fitness has been recorded for this entry: A11C
Ans: -0.182

Q: Given the entry K43P , report its measured abundance fitness.
Ans: -1.02

Q: Which abundance fitness value belongs to D62V ?
Ans: -0.662

Q: Would you kindly share the measured abundance fitness for K43Y ?
Ans: 0.364

Q: Can you look up the measured abundance fitness of D8R for me?
Ans: -0.44

Q: Return reported abundance fitness; argument: D62M
Ans: -0.743

Q: Quick one: abundance fitness of I60K ?
Ans: 0.197

Q: So what does the record say about abundance fitness for H49F ?
Ans: 0.149

Q: Which abundance fitness value is on record for A55W ?
Ans: -0.413

Q: Fill in: abundance fitness of K43H is ___
Ans: 0.519

Q: What does the record list as abundance fitness for D8G ?
Ans: -0.459

Q: Fill blank: measured abundance fitness of the variant K18N is ____.
Ans: -0.34

Q: For the variant shown here, K26Q , give the reported abundance fitness.
Ans: 0.032

Q: Fill in: abundance fitness of N46Q is ___
Ans: -0.035

Q: Look up abundance fitness for this variant: S19I
Ans: -0.762

Q: abundance fitness for K31C ?
Ans: -0.64

Q: I am curious: what abundance fitness value has been reported for A39C ?
Ans: 0.01

Q: Consider the variant Y2S and give its measured abundance fitness.
Ans: -0.516

Q: Can you look up the measured abundance fitness of A24Y for me?
Ans: 0.208

Q: I'd like to know its abundance fitness. The variant in question is I45M
Ans: -0.418

Q: // abundance fitness lookup, key: Y61E
Ans: 0.157

Q: // returns reported abundance fitness for input I60W
Ans: 0.008

Q: What measured abundance fitness goes with K17E ?
Ans: 0.084

Q: For E44L , what is its reported abundance fitness?
Ans: -0.504

Q: Consider the variant D40R and give its measured abundance fitness.
Ans: 0.271

Q: Value lookup for abundance fitness; key = A50T
Ans: -0.072

Q: # lookup: abundance fitness of I45W
Ans: -0.841

Q: State the recorded abundance fitness for this entry: F42I
Ans: -0.135

Q: Look up abundance fitness: D15A
Ans: -0.042

Q: Look up abundance fitness: I45F
Ans: -0.747

Q: Could you tell me which abundance fitness is on file for A38N ?
Ans: -0.296

Q: For the variant V4N , what abundance fitness is on record?
Ans: -0.15

Q: Could you share which abundance fitness value was measured for E37T ?
Ans: -0.011
